Field: log10 of IC50. Provide a value for each of the compounds that follow.
- Tested on: HCMV polymerase (Human cytomegalovirus, UniProt P08546)
- Construct: made in house; host or cells: recombinant baculovirus-infected SF-9 cells
- Sequence (P08546 whole entry): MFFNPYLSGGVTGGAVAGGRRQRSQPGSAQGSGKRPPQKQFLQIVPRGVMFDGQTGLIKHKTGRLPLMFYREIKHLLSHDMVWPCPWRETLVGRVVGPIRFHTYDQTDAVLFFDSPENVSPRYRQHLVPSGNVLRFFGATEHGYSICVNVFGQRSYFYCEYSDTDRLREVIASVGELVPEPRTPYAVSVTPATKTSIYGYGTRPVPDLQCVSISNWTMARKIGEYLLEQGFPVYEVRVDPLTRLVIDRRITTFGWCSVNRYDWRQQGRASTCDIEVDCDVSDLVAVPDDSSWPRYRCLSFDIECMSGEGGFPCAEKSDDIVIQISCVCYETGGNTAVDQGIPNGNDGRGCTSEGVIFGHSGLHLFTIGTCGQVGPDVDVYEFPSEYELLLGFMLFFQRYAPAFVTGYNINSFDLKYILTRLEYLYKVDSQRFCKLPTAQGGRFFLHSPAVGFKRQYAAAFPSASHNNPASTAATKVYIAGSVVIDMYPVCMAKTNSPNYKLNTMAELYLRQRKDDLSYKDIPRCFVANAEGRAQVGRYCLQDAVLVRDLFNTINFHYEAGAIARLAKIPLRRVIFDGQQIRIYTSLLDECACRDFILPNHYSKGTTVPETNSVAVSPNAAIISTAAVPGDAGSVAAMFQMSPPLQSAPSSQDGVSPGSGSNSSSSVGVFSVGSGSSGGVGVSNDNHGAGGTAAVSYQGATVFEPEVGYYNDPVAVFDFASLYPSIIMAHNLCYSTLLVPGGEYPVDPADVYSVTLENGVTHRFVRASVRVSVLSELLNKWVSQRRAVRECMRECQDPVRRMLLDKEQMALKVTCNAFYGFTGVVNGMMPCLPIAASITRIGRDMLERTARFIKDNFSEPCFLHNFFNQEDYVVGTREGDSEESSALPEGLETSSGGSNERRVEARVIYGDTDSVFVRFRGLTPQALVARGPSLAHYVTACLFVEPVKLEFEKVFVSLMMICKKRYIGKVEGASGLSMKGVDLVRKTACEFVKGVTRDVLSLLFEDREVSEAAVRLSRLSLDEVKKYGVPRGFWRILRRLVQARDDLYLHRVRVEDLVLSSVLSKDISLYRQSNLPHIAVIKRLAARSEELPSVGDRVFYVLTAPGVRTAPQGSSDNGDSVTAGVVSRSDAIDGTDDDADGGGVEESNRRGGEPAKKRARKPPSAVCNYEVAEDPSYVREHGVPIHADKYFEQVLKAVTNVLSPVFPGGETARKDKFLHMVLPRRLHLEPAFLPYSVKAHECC
- Assay notes: HCMV polymerase scintillation proximity assay (SPA), modified version
- Assay type: biochemical
- Assay conditions: CMV polymerase; Table 1; modified assay with 4.5 mM DTT, compounds in 100% DMSO; read-out: Antiviral Selective Polymerase IC50 Values, CMV
// do not treat as linear: log10 of IC50, unit µM

Challenge: Query: log10 of IC50; subject: `O=C(NCc1ccc(Cl)cc1)c1cnc2c(F)cc(S(=O)(=O)N3CCOCC3)cc2c1O`
Response given: 1.32

Challenge: Request: `O=C(NCc1ccc(Cl)cc1)c1cnc2ccc(OCCO)cc2c1O`
Response given: 0.26

Challenge: Request: `COc1ccc2ncc(C(=O)NCc3ccc(Cl)cc3)c(O)c2c1`
Response given: 0.53

Challenge: Request: `O=C(NCc1ccc(Cl)cc1)c1cnc2c(F)cc(S(=O)(=O)NCc3ccc(Cl)cc3)cc2c1O`
Response given: 1.03

Challenge: Request: O=C(NCc1ccc(Cl)cc1)c1cnc2c(F)cc(S(=O)(=O)NCc3cccc4ccccc34)cc2c1O [Example 206]
Response given: 0.38

Challenge: Request: `O=C(NCc1ccc(Cl)cc1)c1cnc2ccc(O)cc2c1O`
Response given: 1.46

Challenge: Request: `CN(C)C(=O)c1cc(F)c2ncc(C(=O)NCc3ccc(Cl)cc3)c(O)c2c1`
Response given: 0.70

Challenge: Request: `O=C(NCc1ccc(Cl)cc1)c1cnc2c(F)cc(S(=O)(=O)NCc3ccc4c(c3)OCO4)cc2c1O`
Response given: 1.16

Challenge: Request: `COCC#Cc1cc(F)c2ncc(C(=O)NCc3ccc(Cl)cc3)c(O)c2c1`
Response given: 0.28

Challenge: Request: `O=C(NCc1ccc(Cl)cc1)c1cnc2c(F)cc(S(=O)(=O)NCCc3ccc(Cl)cc3)cc2c1O`
Response given: 0.92

Challenge: Request: `O=C(NCc1ccc(Cl)cc1)c1cnc2c(F)cc(F)c(F)c2c1O`
Response given: 1.00

Challenge: Request: `O=C(NCc1ccc(Cl)cc1)c1cnc2c(F)cc(/C=C\CO)cc2c1O`
Response given: -0.22

Challenge: Request: `N#C/C=C/c1cc(F)c2ncc(C(=O)NCc3ccc(Cl)cc3)c(O)c2c1`
Response given: 0.60

Challenge: Request: `O=C(NCc1ccc(Cl)cc1)c1cnc2c(F)cc(S(=O)(=O)NCc3cccs3)cc2c1O`
Response given: 0.93

Challenge: Request: CC(O)CCc1cc(F)c2ncc(C(=O)NCc3ccc(Cl)cc3)c(O)c2c1 (centres unmarked)
Response given: -0.19

Challenge: Request: `COCC#Cc1cc(OC)c2ncc(C(=O)NCc3ccc(Cl)cc3)c(O)c2c1`
Response given: 0.18
